Source: ChEMBL document CHEMBL1146212

- assayed-target: UniProtKB P46406
- Sequence (P46406 whole entry): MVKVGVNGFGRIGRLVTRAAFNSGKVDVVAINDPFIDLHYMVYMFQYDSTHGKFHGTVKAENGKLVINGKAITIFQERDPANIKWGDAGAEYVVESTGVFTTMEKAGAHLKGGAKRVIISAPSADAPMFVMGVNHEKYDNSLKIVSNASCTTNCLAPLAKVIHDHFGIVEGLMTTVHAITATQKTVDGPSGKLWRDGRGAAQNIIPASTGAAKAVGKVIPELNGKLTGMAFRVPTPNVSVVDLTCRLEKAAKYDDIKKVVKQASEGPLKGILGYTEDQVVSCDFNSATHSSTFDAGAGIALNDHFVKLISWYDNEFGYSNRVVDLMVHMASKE
observable: IC50 (µM)
Respond numerically; units are µM and should not be typed.

Qu. Identify the measured IC50 of `C=CC(C)(C)c1[nH]c2ccccc2c1C1=C(O)C(O)=C(c2c[nH]c3c(CC=C(C)C)cccc23)C(=O)C1=O` for UniProtKB P46406.
Ans. 15

---

- assayed-target: Glyceraldehyde-3-phosphate dehydrogenase (Homo sapiens)
- Sequence (P04406 whole entry): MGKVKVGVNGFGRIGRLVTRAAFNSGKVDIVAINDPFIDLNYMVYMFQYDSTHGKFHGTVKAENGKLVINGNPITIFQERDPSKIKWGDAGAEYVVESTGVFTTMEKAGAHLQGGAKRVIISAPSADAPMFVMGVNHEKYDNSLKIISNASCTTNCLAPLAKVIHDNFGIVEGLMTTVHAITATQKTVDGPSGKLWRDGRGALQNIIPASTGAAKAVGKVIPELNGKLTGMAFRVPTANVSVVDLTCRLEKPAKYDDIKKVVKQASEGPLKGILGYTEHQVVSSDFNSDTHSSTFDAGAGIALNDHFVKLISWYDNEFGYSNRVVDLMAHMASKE
- test-description: Binding affinity to GAPDH in human erythrocytes
observable: pKd
Here pKd is given on a logarithmic scale as minus log10 of the concentration in mol/L.

Qu. Field request: pKd | item: `C=CC(C)(C)c1[nH]c2ccccc2c1C1=C(O)C(O)=C(c2c[nH]c3c(CC=C(C)C)cccc23)C(=O)C1=O`
Ans. 5.14

Qu. Field request: pKd | item: CC(C)=CCc1cccc2c(C3=C(O)C(=O)C(c4c(C)[nH]c5ccc(NC(=O)CCCCCNC(=O)CCCCC6SCC7NC(=O)NC76)cc45)=C(O)C3=O)c[nH]c12 (configuration not stated)
Ans. 5.12
